Attribution: the Human Domainome abundance scans (Beltran et al. 2025)

B1: Far upstream element-binding protein 1, residues 98 to 169; numbered along this chain, Q96AE4 (parent)
chain: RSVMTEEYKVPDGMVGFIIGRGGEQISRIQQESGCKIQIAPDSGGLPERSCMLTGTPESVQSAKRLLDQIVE

# Variants of: B1
# run.description: abundance fitness (aPCA) (normalised: wild type 0, dead -1); higher = more abundant; growth selection in yeast, the domain comes from the species named
# cond: Homo sapiens
# abundance fitness >= -0.04 gives class 1, anything below gives class 0

**Q:** Test whether the variant RSVMTEEYKVPDGMVGFIIGRGGEQISRIQQESGCKIQIAPDSGGLPERSCMLTGTPESVQAAKRLLDQIVE [S62A] records abundance fitness of -0.04 or higher.
**A:** class 1

**Q:** Decide: abundance fitness of RSVMTEEYKVPDGMVGFIIGRGGEQISRIQQESTCKIQIAPDSGGLPERSCMLTGTPESVQSAKRLLDQIVE [G34T] >= -0.04?
**A:** class 0

**Q:** Check the entry RSVMTEEYKVDDGMVGFIIGRGGEQISRIQQESGCKIQIAPDSGGLPERSCMLTGTPESVQSAKRLLDQIVE [P11D] : does abundance fitness equal or exceed -0.04?
**A:** class 0

**Q:** Test whether the variant RSVMTEEYKVPDGMVGFIIGRGGEQISRIQYESGCKIQIAPDSGGLPERSCMLTGTPESVQSAKRLLDQIVE [Q31Y] records abundance fitness of -0.04 or higher.
**A:** class 0

**Q:** For this variant, is measured abundance fitness -0.04 or higher? RSVMTEEYKVPDGMVGFIRGRGGEQISRIQQESGCKIQIAPDSGGLPERSCMLTGTPESVQSAKRLLDQIVE [I19R]
**A:** class 1

**Q:** Could you please find out whether RSVMTEEYKVPDGMVGFTIGRGGEQISRIQQESGCKIQIAPDSGGLPERSCMLTGTPESVQSAKRLLDQIVE [I18T] has abundance fitness that meets -0.04 or exceeds it?
**A:** class 0

**Q:** hey, is abundance fitness for this one >= -0.04? RSNMTEEYKVPDGMVGFIIGRGGEQISRIQQESGCKIQIAPDSGGLPERSCMLTGTPESVQSAKRLLDQIVE [V3N]
**A:** class 1

**Q:** Decide: abundance fitness of RSVMTEEYKVPDGMVGFIIGRGGEQISRIQQESGCKIQIAPDSGGLPERSCMLTGTPESVQSAKRLLDKIVE [Q69K] >= -0.04?
**A:** class 1

**Q:** Could you please find out whether RRVMTEEYKVPDGMVGFIIGRGGEQISRIQQESGCKIQIAPDSGGLPERSCMLTGTPESVQSAKRLLDQIVE [S2R] has abundance fitness that meets -0.04 or exceeds it?
**A:** class 1

**Q:** Tell me whether abundance fitness is at least -0.04 here: RSVMTEEYKVPDGMVGFIIGRGGEQISRIQQESRCKIQIAPDSGGLPERSCMLTGTPESVQSAKRLLDQIVE [G34R]
**A:** class 0

**Q:** Test whether the variant RSVMTEEYKVPDGMQGFIIGRGGEQISRIQQESGCKIQIAPDSGGLPERSCMLTGTPESVQSAKRLLDQIVE [V15Q] records abundance fitness of -0.04 or higher.
**A:** class 0

**Q:** Determine whether this variant has abundance fitness no lower than -0.04: RSVMTEEYKVPDGMVGFIIGRGGEQISRIQQESGCKIQIAPDSGGLPERSCMLTGTRESVQSAKRLLDQIVE [P57R]
**A:** class 1

**Q:** Hi, just wondering whether RSVMTEEYKVPDGMVGFIIGRGGEQISRIQQESGCKIQIAPDSGGLPERSCWLTGTPESVQSAKRLLDQIVE [M52W] shows abundance fitness of -0.04 or higher.
**A:** class 1

**Q:** Does abundance fitness meet or surpass -0.04 for RSVMSEEYKVPDGMVGFIIGRGGEQISRIQQESGCKIQIAPDSGGLPERSCMLTGTPESVQSAKRLLDQIVE [T5S] ?
**A:** class 1

**Q:** Record REVMTEEYKVPDGMVGFIIGRGGEQISRIQQESGCKIQIAPDSGGLPERSCMLTGTPESVQSAKRLLDQIVE [S2E] ; criterion: abundance fitness no lower than -0.04. Met?
**A:** class 1

**Q:** Test whether the variant RSVMTEEYKVPDGMPGFIIGRGGEQISRIQQESGCKIQIAPDSGGLPERSCMLTGTPESVQSAKRLLDQIVE [V15P] records abundance fitness of -0.04 or higher.
**A:** class 0

**Q:** Given RSVMTEEYKVPDGMVGFIIGRGGEKISRIQQESGCKIQIAPDSGGLPERSCMLTGTPESVQSAKRLLDQIVE [Q25K] , state whether its abundance fitness is at least -0.04.
**A:** class 1

**Q:** Check if abundance fitness >= -0.04 (inclusive). Item: RSVMTEEYKVPDGMVGFIIGRGGIQISRIQQESGCKIQIAPDSGGLPERSCMLTGTPESVQSAKRLLDQIVE [E24I]
**A:** class 1

**Q:** Determine whether measured abundance fitness meets or exceeds -0.04 for RSPMTEEYKVPDGMVGFIIGRGGEQISRIQQESGCKIQIAPDSGGLPERSCMLTGTPESVQSAKRLLDQIVE [V3P]
**A:** class 0

**Q:** Has RSVMTEEYKVPDGMVGFIIGRGGEQISQIQQESGCKIQIAPDSGGLPERSCMLTGTPESVQSAKRLLDQIVE [R28Q] a recorded abundance fitness greater than or equal to -0.04?
**A:** class 1

**Q:** API: above_or_equal(metric=abundance fitness, cutoff=-0.04) for item WSVMTEEYKVPDGMVGFIIGRGGEQISRIQQESGCKIQIAPDSGGLPERSCMLTGTPESVQSAKRLLDQIVE [R1W]
**A:** class 0

**Q:** Tell me whether abundance fitness is at least -0.04 here: RSVMTEEYKVPDGMVGFIIGRGGEQISRIQQESGCKIQIAPDSGGLPERSCMLTGTPESVQEAKRLLDQIVE [S62E]
**A:** class 1

**Q:** API: above_or_equal(metric=abundance fitness, cutoff=-0.04) for item RSHMTEEYKVPDGMVGFIIGRGGEQISRIQQESGCKIQIAPDSGGLPERSCMLTGTPESVQSAKRLLDQIVE [V3H]
**A:** class 0

**Q:** Given RSVMTEEYKVPDGMVGFIIGRGGEQIGRIQQESGCKIQIAPDSGGLPERSCMLTGTPESVQSAKRLLDQIVE [S27G] , state whether its abundance fitness is at least -0.04.
**A:** class 1

**Q:** Please indicate if the recorded abundance fitness for RSVMTEEYKVPDGMVGFIIGRGGEQISRIQQESGCKIQIAPDSGGLPERSCCLTGTPESVQSAKRLLDQIVE [M52C] meets or exceeds -0.04.
**A:** class 1

**Q:** abundance fitness >= -0.04 for RSVMTEEYKVPDGMVGFIIGRGGEQISRIQQESGCKIQIAPDSGGLPERSCMLTGTDESVQSAKRLLDQIVE [P57D] ?
**A:** class 0

**Q:** Item RSVMTEEYKVPDGMVGFIIGRGGEQISRIQQESGCKIQIAPDSGGLPWRSCMLTGTPESVQSAKRLLDQIVE [E48W] with abundance fitness of -0.04 or above?
**A:** class 1

**Q:** Could you tell me if the measured abundance fitness of RSVMTEEYKVPDGMVGFIIGRGGEQISRIQQESGCKIQIAMDSGGLPERSCMLTGTPESVQSAKRLLDQIVE [P41M] reaches -0.04 or more?
**A:** class 0

**Q:** Record RSVMTEEYKVPDGMVGFIIGRGGEQISRIQQESGCKIQIAPDSGGLPERSCMLTGTPESVQSFKRLLDQIVE [A63F] ; criterion: abundance fitness no lower than -0.04. Met?
**A:** class 0

**Q:** Does abundance fitness meet or surpass -0.04 for RSVMTEEYKVPDGMVLFIIGRGGEQISRIQQESGCKIQIAPDSGGLPERSCMLTGTPESVQSAKRLLDQIVE [G16L] ?
**A:** class 0

**Q:** abundance fitness >= -0.04 for RFVMTEEYKVPDGMVGFIIGRGGEQISRIQQESGCKIQIAPDSGGLPERSCMLTGTPESVQSAKRLLDQIVE [S2F] ?
**A:** class 1

**Q:** Determine whether this variant has abundance fitness no lower than -0.04: RSVMTEEYKVPDGMVGFIIGRGGEQISRIQQESGCKIQIAFDSGGLPERSCMLTGTPESVQSAKRLLDQIVE [P41F]
**A:** class 0

**Q:** Does RSVMDEEYKVPDGMVGFIIGRGGEQISRIQQESGCKIQIAPDSGGLPERSCMLTGTPESVQSAKRLLDQIVE [T5D] have a reported abundance fitness of at least -0.04?
**A:** class 0

**Q:** # bool: abundance fitness of RSVMTEEYKVPDGMVGFIIGRGGEQISRIQQESGCKIQIAPDSGGLPERSCMLTGTPESVQQAKRLLDQIVE [S62Q] >= -0.04
**A:** class 1

**Q:** Tell me whether abundance fitness is at least -0.04 here: RSVRTEEYKVPDGMVGFIIGRGGEQISRIQQESGCKIQIAPDSGGLPERSCMLTGTPESVQSAKRLLDQIVE [M4R]
**A:** class 0
